- System: L1210 leukemia ip in BDF1 mice, survival T/C
- procedureText: NCI In Vivo Anticancer Drug Screen. Data for tumor model L1210 Leukemia (intraperitoneal) in B6D2F1 (BDF1) mice
- studyConditions: endpoint: mean survival time; dose: 200.0 mg/kg/injection; schedule: Q01DX001 (ip); vehicle: saline; higher = longer survival
Toxic doses and inconclusive results are not listed.
readout: T/C

Read the entry NC(=S)N=Nc1ccc(O)cc1 and write its reported T/C.
100 % of control

Read the entry O=C1CCCc2[nH]c(=O)ccc21 and write its reported T/C.
94 % of control

Read the entry Cc1cc(C(C)(C)C)ccc1S(=O)(=O)C1CC1c1ccccc1 (stereo not given) and write its reported T/C.
102 % of control

Read the entry NCCC(=O)NO and write its reported T/C.
88 % of control

Read the entry CCN(CC)c1ccc(/C=C(/S)C(=O)O)cc1 and write its reported T/C.
92 % of control

Read the entry O=C1CCSCC1 and write its reported T/C.
104 % of control

Read the entry CCCCCCCCCCC1Cc2ccccc2C1 and write its reported T/C.
104 % of control

Read the entry C=CC1CN2CCC1CC2C(O)c1ccnc2ccc(OC)cc12 (stereo not given) and write its reported T/C.
101 % of control

Read the entry Nc1nc2c(=O)[nH]c(=O)[nH]c2n1C1OC(CO)C(O)C1O (stereo not given) and write its reported T/C.
111 % of control

Read the entry CC1C(OC(=O)CCc2ccccc2)=CCC2C1(C)CCC1C2(C)CCC2(C)C3CC(C)(C)CCC3(C)CCC12C (stereo not given) and write its reported T/C.
95 % of control

Read the entry CCOC(=O)C(CC(C(=O)OCC)C(=O)c1ccccc1)C(=O)c1ccccc1 (stereo not given) and write its reported T/C.
90 % of control

Read the entry COc1cccc(C2N(Cc3ccc(OC)cc3OC)CCCN2Cc2ccc(OC)cc2OC)c1 and write its reported T/C.
91 % of control

Read the entry CC1(C)N=C(N)N=C(N)N1c1cccc(C(=O)Nc2cccc(S(=O)(=O)F)c2)c1 and write its reported T/C.
94 % of control

Read the entry Nc1nc(=O)n(C2OC(CO)C(O)C2O)c2ccccc12 (stereo not given) and write its reported T/C.
101 % of control

Read the entry N=C(N)Sc1cccc[n+]1[O-] and write its reported T/C.
111 % of control

Read the entry CCCCCCCCCCCCCCCC1=C(O)c2ccccc2C(=O)C1=O and write its reported T/C.
101 % of control

Read the entry Cn1nc(C#N)c2c(N)ncnc21 and write its reported T/C.
104 % of control

Read the entry O=C(c1ccccc1)C(Br)[N+](=O)[O-] (stereo not given) and write its reported T/C.
103 % of control

Read the entry COC(=O)C1(C)COP(=O)(N2CC2C)OC1 (stereo not given) and write its reported T/C.
101 % of control

Read the entry CCN(CC)COC(C)=O and write its reported T/C.
106 % of control

Read the entry CN(C)CCOC(c1ccccc1)c1ccccc1 (tested in a mixture with another compound) and write its reported T/C.
101 % of control

Read the entry O=C(CCCC(=O)NNC(=O)Nc1cc(Cl)ccc1Cl)NNC(=O)Nc1cc(Cl)ccc1Cl and write its reported T/C.
102 % of control

Read the entry N#CC1(N(O)C(=O)Nc2ccccc2)CCCCC1 and write its reported T/C.
96 % of control

Read the entry c1ccc(C23c4ccccc4C(=NC4CCCCC4)C2N3C2CCCCC2)cc1 (stereo not given) and write its reported T/C.
104 % of control

Read the entry C#CCN and write its reported T/C.
102 % of control

Read the entry CCN1/C(=C/C=C2/SC(=S)N(CC(=O)O)C2=O)Oc2ccccc21 and write its reported T/C.
100 % of control

Read the entry O=C1C(=C(c2ccccc2)N2CCCCC2)C(=O)c2ccccc21 and write its reported T/C.
109 % of control

Read the entry OCC1OC(n2c(=S)[nH]c3ccccc32)C(O)C1O (stereo not given) and write its reported T/C.
100 % of control

Read the entry CN(C)c1ccc(/C=C/c2ccnc3ccccc23)cc1 and write its reported T/C.
103 % of control

Read the entry CCCC[CH2][Sn](=[O])[CH2]CCCC and write its reported T/C.
104 % of control

###

Field: T/C. Provide a value for each of the compounds that follow.
- System: L1210 leukemia ip in BDF1 mice, survival T/C
- procedureText: NCI In Vivo Anticancer Drug Screen. Data for tumor model L1210 Leukemia (intraperitoneal) in B6D2F1 (BDF1) mice
- studyConditions: endpoint: mean survival time; dose: 200.0 mg/kg/injection; schedule: Q01DX009 (ip); vehicle: Klucel (hydroxypropylcellulose) (HPC); higher = longer survival
Inconclusive results and toxic doses are left out.

Read the entry CCCCCCNC(=O)Nc1ccccc1Cl and write its reported T/C.
100 % of control

Read the entry O=S1(=O)N2CN3CN(C2)CN1C3 and write its reported T/C.
100 % of control

Read the entry CCCCC(=O)c1ccc(F)cc1 and write its reported T/C.
98 % of control

Read the entry O=Cc1cc(C(=O)c2ccccn2)c2cc(Cl)cc(Cl)c2n1 and write its reported T/C.
96 % of control

Read the entry CS(=O)(=O)OCC1CCCCC1COS(C)(=O)=O (centres undefined) and write its reported T/C.
104 % of control

Read the entry Cc1ccc(C)c(NC(=O)Nc2ncccn2)c1 and write its reported T/C.
92 % of control

Read the entry COc1ccc(NC(=O)OC/C=C/c2ccccc2)c(OC)c1 and write its reported T/C.
87 % of control

Read the entry CCOP(=O)(/C(=C\c1ccccc1)C(=O)c1ccccc1)c1ccccc1 (centres undefined) and write its reported T/C.
95 % of control

Read the entry CC(O)/C(=N/Nc1ccc([N+](=O)[O-])cc1[N+](=O)[O-])C(=O)O (centres undefined) and write its reported T/C.
96 % of control

Read the entry Nc1nc2ccccc2c(Cl)c1Cl and write its reported T/C.
91 % of control

Read the entry COC(=O)CCCCCCCC(=O)O and write its reported T/C.
98 % of control

Read the entry O=C1OC(c2ccccc2)=N/C1=C1\OC(=O)c2ccccc21 and write its reported T/C.
92 % of control

Read the entry COC(=O)C1OC1c1ccc2ccccc2c1 (centres undefined) and write its reported T/C.
95 % of control

Read the entry Cc1ccccc1NC(=O)Nc1ccccc1F and write its reported T/C.
99 % of control

Read the entry Cc1ccc2c(c1)C1CCC3(CC1OC2(C)C)OC(C)(C)c1cc(C)ccc13 (centres undefined) and write its reported T/C.
89 % of control

Read the entry Cc1cc(N(C)C)ccc1C=O and write its reported T/C.
105 % of control

Read the entry NN(CC1=COc2ccccc2O1)Cc1ccccc1 and write its reported T/C.
95 % of control

Read the entry Cc1ccc2nc(-c3cc(Br)ccc3O)c(-c3cc(Br)ccc3O)nc2c1 and write its reported T/C.
100 % of control

Read the entry Cc1ccc([N+](=O)[O-])c(OC(=O)Nc2ccc(Cl)c(Cl)c2)c1 and write its reported T/C.
101 % of control

Read the entry CCOC(=O)c1ccc(C(=O)OCC)c(Cl)n1 and write its reported T/C.
95 % of control

Read the entry Cc1ccccc1NC(=O)Nc1cccc(C)c1C and write its reported T/C.
95 % of control

Read the entry Cc1cccc(OCCOC(=O)Nc2ccccc2F)c1 and write its reported T/C.
93 % of control

Read the entry CC1=CC(c2c(O)cccc2O)C(=C(C)C)CC1 (centres undefined) and write its reported T/C.
95 % of control

Read the entry CC(=Nc1cc(C)ccc1C)c1c(O)cc(C)oc1=O and write its reported T/C.
97 % of control

Read the entry CC1(C)CC(C)(c2ccccc2)c2ccccc21 (centres undefined) and write its reported T/C.
95 % of control

Read the entry Cc1ccc(Cl)c(NC(=O)c2ccc(C(=O)Nc3cc(C)ccc3Cl)cc2)c1 and write its reported T/C.
88 % of control

Read the entry O=C(O)CN1C(=O)OC(c2ccccc2)C1=O (centres undefined) and write its reported T/C.
97 % of control

Read the entry O=C(c1ccccc1)c1c2ccccc2c(-c2ccccc2)c2ccccc12 and write its reported T/C.
103 % of control

Read the entry Cc1cc(/C=N/NC(=O)c2ccccc2NC(=O)c2ccccc2Cl)ccc1O and write its reported T/C.
92 % of control

Read the entry CCCCCCCCCCC(O)CN1CCN(c2ccc(C)cc2)CC1 (centres undefined) and write its reported T/C.
101 % of control

Read the entry C=CCC(C(C)=O)C(=O)OCC (centres undefined) and write its reported T/C.
96 % of control

Read the entry CC(=O)Oc1cccc(OC(C)=O)c1OC(C)=O and write its reported T/C.
100 % of control

Read the entry CCCCCCCCCCCCCCCC(=O)OC and write its reported T/C.
101 % of control

Read the entry CCOC(=O)C(Cl)CCl (centres undefined) and write its reported T/C.
104 % of control

###

- System: L1210 leukemia ip in BDF1 mice, survival T/C
- procedureText: NCI In Vivo Anticancer Drug Screen. Data for tumor model L1210 Leukemia (intraperitoneal) in B6D2F1 (BDF1) mice
- studyConditions: endpoint: mean survival time; dose: 400.0 mg/kg/injection; schedule: Q04DX003 (ip); vehicle: saline with Tween-80; higher = longer survival
Inconclusive results and toxic doses are left out.
readout: T/C

Read the entry COc1ccc(C(CC(=O)c2ccccc2)CC(=O)c2ccccc2)cc1 and write its reported T/C.
87 % of control

Read the entry CSCc1cnc(N)nc1-c1ccccc1 and write its reported T/C.
105 % of control

Read the entry CCCCN(C)c1ccc(N=Nc2cc(Cl)ccc2Cl)cc1 and write its reported T/C.
86 % of control

Read the entry CCN(CC)CCNc1ncnc2c1cnn2-c1ccc(Cl)cc1 and write its reported T/C.
103 % of control

Read the entry CCCCCCCCCCCCCCCC(=O)N(CCCN)CCCCN(CCCN)C(=O)CCCCCCCCCCCCCCC and write its reported T/C.
111 % of control

Read the entry COc1ccc(C(=O)NC(=S)Nc2ccc(CCO)cc2)cc1 and write its reported T/C.
92 % of control

Read the entry CC(=O)NC1C(OC(C)=O)OC(COC(c2ccccc2)(c2ccccc2)c2ccccc2)C(O)C1OC(C)=O (stereo unspecified) and write its reported T/C.
88 % of control

Read the entry CCCc1cc2c3c(c(=O)oc2cc1OC)CCCC3 and write its reported T/C.
93 % of control

Read the entry COc1ccccc1NC(N)=O and write its reported T/C.
98 % of control

Read the entry O=c1cc(COc2ccccc2Cl)[nH]c(=O)[nH]1 and write its reported T/C.
95 % of control

Read the entry Cc1cc(N2C(=O)CSC2=S)ccc1Br and write its reported T/C.
104 % of control
